The origin of these recorded values is patent US20140066498A1.

- Target system: UniProt P04839
- Assay type: cell-based
- Condition: ROS production triggered with fMLP (2 μM), 1-50 μM test drug, peripheral human neutrophils; mean ± S.E.M.; read-out: IC50 (μM) in NOX fMLP-induced NOX activation in PMN
Observation type: IC50 (µM)

INSERT INTO assay_data (compound, observation_type, measured_result) VALUES
  ('C=C(C)C#Cc1c(OC)cc(OC)c(OC)c1C [II-9, antrocamphin A]', 'IC50', 15.1),
  ('C=C(CC[C@@H](C)[C@H]1CC[C@H]2C3=C(C(=O)C[C@]12C)[C@@]1(C)CCC(=O)[C@@H](C)[C@@H]1CC3)C(C)C(=O)O (stereo partly drawn) [Compound I-15, antcin A]', 'IC50', 29.2),
  ('C=C(CC[C@@H](C)[C@H]1CC[C@H]2C3=C(C(=O)C[C@]12C)[C@@]1(C)CC[C@@H](O)[C@](C)(O)[C@@H]1C[C@@H]3O)C(C)C(=O)O (stereo partly drawn) [Compound I-17, antcin K]', 'IC50', 47.2);

---

Known melting point of a selection of molecules
Observation type: melting point

INSERT INTO results (molecule, measured_result) VALUES
  ('C=C(CC[C@@H](C)[C@H]1CC[C@@H]2C3=C(C(=O)C[C@@]21C)[C@@]1(C)CCC(=O)[C@@H](C)C1CC3)C(C)C(=O)OC (stereo partly drawn) [Compound I-10]', '100 to 102 °C'),
  ('C=C(CC[C@@H](C)C1CCC2C3=C(C(=O)C[C@@]21C)[C@@]1(C)CCC(=O)[C@@H](C)C1CC3O)C(C)C(=O)OC (stereo in doubt) [Compound I-6]', '100 to 101 °C'),
  ('C=C(CC[C@@H](C)C1CCC2C3=C(C(=O)[C@H](O)[C@@]21C)[C@@]1(C)CC[C@@H](O)[C@@H](C)C1C[C@H]3O)C(C)C(=O)O (stereo partly drawn) [Compound I-1]', '117 to 119 °C'),
  ('C=C(CC[C@@H](C)C1CCC2C3=C(C(=O)C[C@@]21C)[C@@]1(C)CC[C@@H](O)[C@](C)(O)C1CC3=O)C(C)C(=O)O (stereo partly drawn) [Compound I-3]', '186 to 188 °C'),
  ('C=C(CC[C@@H](C)[C@H]1CC[C@@]2(O)C3=C(C(=O)C[C@]12C)[C@@]1(C)CCC(=O)[C@@H](C)C1C[C@@H]3O)C(C)C(=O)O (stereo partly drawn) [Compound I-4]', '175 to 177 °C'),
  ('C[C@H](C=C[C@H](C)[C@H](C)CO)[C@H]1CC[C@H]2C3=CCC4CC(=O)CC[C@]4(C)[C@H]3CC[C@]12C (stereo partly drawn) [Compound I-9, (25S)-26-hydroxy-ergosta-7,22-dien-3-one]', '192 to 193 °C');

---

- Tested on: KB-VIN (multidrug-resistant strain)
- Protocol description: Cytotoxicity assay against KB-VIN cells in vitro
- Type: cell-based, human
Observation type: EC50 (µM)

INSERT INTO measurements (compound, bound_type, measured_result) VALUES
  ('C=C(CC[C@@H](C)[C@H]1CC[C@H]2C3=C(C(=O)C[C@]12C)[C@@]1(C)CCC(=O)[C@@H](C)[C@@H]1CC3=O)C(C)C(=O)OC (some centres unmarked)', '>', 20),
  ('C=C(CC[C@@H](C)[C@H]1CC[C@H]2C3=C(C(=O)C[C@]12C)[C@@]1(C)CCC(=O)[C@@H](C)[C@@H]1CC3=O)C(C)C(=O)O (some centres unmarked)', '=', 6.2),
  ('C=C(CC[C@@H](C)[C@H]1CC[C@H]2C3=C(C(=O)C[C@]12C)[C@@]1(C)CCC(=O)[C@@H](C)[C@@H]1CC3)C(C)C(=O)O (some centres unmarked)', '=', 10),
  ('C=C(CC[C@@H](C)[C@H]1CC[C@H]2C3=C(C(=O)[C@H](O)[C@]12C)[C@@]1(C)CC[C@@H](O)[C@@H](C)[C@@H]1CC3=O)C(C)C(=O)O (some centres unmarked)', '=', 6.4),
  ('C=C(CC[C@@H](C)[C@H]1CC[C@H]2C3=C(C(=O)C[C@]12C)[C@@]1(C)CC[C@@H](O)[C@@H](C)[C@@H]1CC3=O)C(C)C(=O)O (some centres unmarked)', '=', 8.5);
